Listing of entries alongside the reported inhibition at 12.5 µM.
Test system: calcineurin-Crz1 pathway
measurement-protocol: β-Galactosidase CDRE-lacZ yeast reporter assay of Crz1 activation
Assay type: cell-based, S. cerevisiae
test-settings: Saccharomyces cerevisiae, read-out: Calcineurin-Crz1 Inhibition (%) ± SD, 12.5 µM; MnCl2 3 mM activation; strain YAA5
Method: Cultures at OD600= 0.5 ± 0.05 were diluted to OD600= 0.1 ± 0.01, transferred to 96-well microplate and challenged with the highest nontoxic concentration previously determined for each compound to investigate their putative inhibitory effect towards the calcineurin-responsive zinc finger (Crz1) activation. […]
assay-readout: inhibition at 12.5 µM (%)

C=C1C(=O)O[C@H]2[C@H]1CC/C(C)=C/CC[C@@]1(C)O[C@@H]21 [Parthenolide, parthenolide, reference compound] ... 20
CC1=C2C(=O)C=C(CO)C2C2OC(=O)C(C)C2C(O)C1 (stereo not drawn) [11β,13-dihydrolactucin] ... 43
C=C1C(=O)O[C@@H]2[C@H]3C(CO)=CC(=O)C3=C(C)C[C@H](O)[C@@H]12 [Lactucin, lactucin] ... 20
CC1=C2C(=O)C=C(CO)C2C2OC(=O)C(C)C2C(OC(=O)Cc2ccc(O)cc2)C1 (stereo not drawn) [11β,13-dihydrolactucopicrin] ... 26
C=CC[C@@H]1/C=C(\C)C[C@H](C)C[C@H](OC)[C@H]2O[C@@](O)(C(=O)C(=O)N3CCCC[C@H]3C(=O)O[C@H](/C(C)=C/[C@@H]3CC[C@@H](O)[C@H](OC)C3)[C@H](C)[C@@H](O)CC1=O)[C@H](C)C[C@@H]2OC [FK506, reference compound] ... 67
C=C1C(=O)O[C@@H]2[C@H]3C(CO)=CC(=O)C3=C(C)C[C@H](OC(=O)Cc3ccc(O)cc3)[C@@H]12 [Lactucopicrin, lactucopicrin] ... 18
